Listed here: items and their measured IC50.
- assay_system: PASK (Invitrogen) Kinase Domain (Homo sapiens)
- Construct: IC50 Kinase Domain; purchased Invitrogen
- method_description: PASK TR-FRET assay (Ulight-peptide, Eu chelate antibody)
- Type: biochemical
- reported_conditions: TR-FRET 665 nm/615 nm, 2 hours at 25° C.

Some solved entries appear below for comparison.
## Task # value lookup — system PASK (Invitrogen) Kinase Domain (Homo sapiens), readout IC50, item COc1ccc(-c2cc3cc(C(=O)O)ccc3nc2-c2ccc(OC)cc2)cc1 [Example 61]
## Result ≤ 10 µM

## Task # value lookup — system PASK (Invitrogen) Kinase Domain (Homo sapiens), readout IC50, item CC(C)S(=O)(=O)Nc1ccc(-c2nc3cc(C(=O)O)ccc3nc2-c2ccccc2)cc1 [Example 52]
## Result ≤ 10 µM

With those in mind, consider the next compound.
## Task # value lookup — system PASK (Invitrogen) Kinase Domain (Homo sapiens), readout IC50, item CC(C)(C)c1ccc(-c2nc3cc(C(=O)O)ccc3nc2-c2ccccc2)cc1 [Example 33]
## Result ≤ 10 µM

* * *

- assay_system: hPASK Kinase Domain (Homo sapiens)
- Construct: made in house; host or cells: insect cells
- Sequence (Q96RG2 999-1251 limits assumed): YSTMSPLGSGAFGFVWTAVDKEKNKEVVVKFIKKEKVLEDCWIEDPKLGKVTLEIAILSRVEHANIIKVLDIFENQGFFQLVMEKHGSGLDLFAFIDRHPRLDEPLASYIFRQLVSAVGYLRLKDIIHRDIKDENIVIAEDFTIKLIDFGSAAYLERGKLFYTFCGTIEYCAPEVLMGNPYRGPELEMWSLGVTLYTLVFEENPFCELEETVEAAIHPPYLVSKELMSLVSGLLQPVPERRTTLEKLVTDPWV
- method_description: Biochemical Assay for hPASK Activity (Kinase-Glo Luminescent Kinase Assay), kinase domain
- reported_conditions: Table 1, second part (Examples 33-59)
value_kind: IC50

Some solved entries appear below for comparison.
## Task Look at this compound and give its reported IC50. COc1ccc(-c2nc3cccc(C(=O)O)c3nc2-c2ccc(OC)cc2)cc1 [Example 58]
## Result ≤ 10 µM

## Task Look at this compound and give its reported IC50. CN(c1ccc(-c2nc3cc(C(=O)O)ccc3nc2-c2ccccc2)cc1)S(C)(=O)=O [Example 51]
## Result ≤ 10 µM

## Task Look at this compound and give its reported IC50. CNS(=O)(=O)c1ccc2nc(-c3ccc(OC)cc3)c(-c3ccc(OC)cc3)nc2c1 [Example 54]
## Result ≥ 10 µM

With those in mind, consider the next compound.
## Task Look at this compound and give its reported IC50. CCc1ccc(-c2nc3ccc(C(=O)NOC)cc3nc2-c2ccc(CC)cc2)cc1 [Example 59]
## Result ≤ 10 µM
